All values here come from PubChem BioAssay.

Assay: reversal of MRP1-mediated doxorubicin resistance, pilot screen, H69AR cells, doxorubicin co-treatment (AID 601)
Conditions: H69AR cells + 2 uM doxorubicin, CellTiter-Glo, 72 h; measured here: viability with 2 uM doxorubicin; at 10 µM; stronger effect = lower value
The following compounds are shown together with reported viability values.
The reply should be a number in %, with the unit left off.

Some compounds with known viability results, for comparison:
[[record]]
compound = "Cc1cc(C)n(-c2ccc3cccc(NS(C)(=O)=O)c3n2)n1"
recorded_measurement = 50.4

[[record]]
compound = "CC1=C(C(=O)OCC(C)C)C(c2cc3c(cc2Br)OCO3)NC(=O)N1C (stereo not drawn)"
recorded_measurement = 101

[[record]]
compound = "CC1c2nc3ccccc3n2C(CC(=O)NCc2ccccn2)C(=O)N1Cc1ccccc1 (stereo not drawn)"
recorded_measurement = 85.5

[[record]]
compound = "O=C(c1ccc(Br)o1)N1CCN(c2ccc3nnc(-c4ccccc4)n3n2)CC1"
recorded_measurement = 37.1

[[record]]
compound = "CC(C)CC(c1nnnn1C(C)(C)C)N1CCN(C2CCCC2)CC1 (stereo not drawn)"
recorded_measurement = 84.8


Suppose we examine the compound Cc1cc(NS(=O)(=O)c2ccc(NC(=O)C(C)N3C(=O)c4ccccc4C3=O)cc2)nc(C)n1 (stereo not drawn) ; what viability value has been reported? 91.7

How about this compound: CC(C)(C)c1ccc2c(c1)OCC(C(=O)O)O2 (stereo not drawn) 96.3

Next entry: COC(=O)C1=CN(C)C=C(C(=O)OC)C1c1ccc(O)c(OC)c1 93.4

For COc1ccc(OC)c(N2Cc3cc(C)c(C)cc3C2)c1 then? 88.4

Another: CCCS(=O)(=O)N1CCCC(C(=O)NC(C)c2ccc3c(c2)OCCO3)C1 (stereo not drawn) 87.8

---

Assay: 384-well plate pilot, post-Golgi transport modulator project, inhibition of yeast transport mutant growth (AID 636)
Settings: absorbance 615 nm, about 18 h, stronger effect = higher value
inhibition listing for selected molecules.
Value expressed in %; do not type the unit.

[[record]]
molecule = "O=C1CCC(c2ccccc2)N1C(=O)c1cccnc1 (stereo not given)"
value_units = "%"
recorded_measurement = -6.58


Now examine the next entry.
Entry under review: CCN(CC)CCNC(=O)C1CCN(S(=O)(=O)N2CCCCC2)CC1 . Reported inhibition? -3.82

---

Assay: reversal of MRP1-mediated doxorubicin resistance, pilot screen, H69AR cells, doxorubicin co-treatment (AID 601)
Conditions: H69AR cells + 2 uM doxorubicin, CellTiter-Glo, 72 h; measured here: viability with 2 uM doxorubicin; at 10 µM; stronger effect = lower value
# key: entry, value: viability
Number in %, nothing else.

Some entries whose results are on file:
[[record]]
compound = "CS(=O)(=O)N(Cc1ccccc1)c1ccc(C(=O)N2CCOCC2)cc1"
value_units = "%"
recorded_measurement = 91

[[record]]
compound = "COc1ccc(CCNC(=O)CSCc2n[nH]c(=O)[nH]2)cc1OC"
value_units = "%"
recorded_measurement = 88.6

[[record]]
compound = "Cc1cc(NC(=O)C23CCC(C)(C(=O)O2)C3(C)C)no1 (stereo not given)"
value_units = "%"
recorded_measurement = 89.2

[[record]]
compound = "COc1ccc(-c2ccc(=O)n(Cc3cc(=O)n4ccccc4n3)n2)cc1"
value_units = "%"
recorded_measurement = 91.1


Give the measured viability of CCCCCC1NC(=O)NC1CCCCCC(=O)O (stereo not given) . 89.2
